- Target or test system: PCP hydroxylase (Sphingobium chlorophenolicum, UniProt P42535)
- Sequence (P42535 1-538): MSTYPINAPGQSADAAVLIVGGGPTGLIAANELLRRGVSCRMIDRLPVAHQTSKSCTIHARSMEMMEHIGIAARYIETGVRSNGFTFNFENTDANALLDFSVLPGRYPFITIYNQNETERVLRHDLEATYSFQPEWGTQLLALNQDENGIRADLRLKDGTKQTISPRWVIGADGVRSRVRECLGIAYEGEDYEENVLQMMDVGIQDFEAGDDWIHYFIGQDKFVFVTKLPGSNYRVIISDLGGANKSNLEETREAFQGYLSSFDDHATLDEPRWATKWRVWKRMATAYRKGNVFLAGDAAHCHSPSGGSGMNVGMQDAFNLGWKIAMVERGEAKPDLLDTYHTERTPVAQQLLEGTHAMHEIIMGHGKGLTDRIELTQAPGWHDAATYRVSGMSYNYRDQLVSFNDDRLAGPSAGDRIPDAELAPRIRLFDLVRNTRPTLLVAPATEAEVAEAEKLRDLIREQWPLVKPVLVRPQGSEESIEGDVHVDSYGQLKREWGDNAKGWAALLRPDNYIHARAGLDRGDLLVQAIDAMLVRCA
- Test method notes: Hydrogen peroxide assay
- Type: biochemical
- Details: 100 μM substrate, 160 μM NADPH
Readout kind: log10 of H2O2 appearance (log10 of the value in s⁻¹)
Note: values are log10 of H2O2 appearance expressed in s⁻¹.

Observed log10 of H2O2 appearance, PCP hydroxylase (Sphingobium chlorophenolicum, UniProt P42535), Oc1c(Cl)cccc1Cl : -2.96

Observed log10 of H2O2 appearance, PCP hydroxylase (Sphingobium chlorophenolicum, UniProt P42535), Oc1c(Cl)c(Cl)c(Cl)c(Cl)c1Cl : -2.15

Observed log10 of H2O2 appearance, PCP hydroxylase (Sphingobium chlorophenolicum, UniProt P42535), Oc1c(Cl)cc(Cl)cc1Cl : -2.92

Observed log10 of H2O2 appearance, PCP hydroxylase (Sphingobium chlorophenolicum, UniProt P42535), Oc1c(Cl)c(Cl)c(O)c(Cl)c1Cl [TCHQ, tetrachlorohydroquinone] : -1.46

Observed log10 of H2O2 appearance, PCP hydroxylase (Sphingobium chlorophenolicum, UniProt P42535), Oc1c(Cl)c(Cl)cc(Cl)c1Cl : -1.88

Origin of the recorded values: paper PMC4251658
